This section presents compounds with their documented MNTC at 24 h values.
test: Cytotoxicity against HUVEC assessed as maximum tolerated dose for >95% cell viability after 24 hrs by MTT assay; type: cell-based; conditions: human, HUVEC cells; read-out: MTD
Give a bare numeral; the unit µg/mL is implied.

Example entries and their recorded answers appear below.
{"columns": ["compound", "MNTC at 24 h [µg/mL]"],
 "data": [
  ["CCOC(=O)CCc1cc(OC)c(OC)c(OC)c1", 110],
  ["O=C(/C=C/c1ccccc1)OCc1ccccc1 [BENZYL CINNAMATE]", 70],
  ["COc1ccc(OC)c(/C=C/C(=O)Oc2ccccc2)c1", 60],
  ["COc1cc(CCC(=O)SCc2ccccc2)cc(OC)c1OC", 60]
]}

Request the reported MNTC at 24 h associated with COc1ccc(OC)c(/C=C/C(=O)OC(C)C)c1 120

Next record, please: CCCOC(=O)/C=C/c1cc(OC)ccc1OC 120

Another compound to look at: CCSC(=O)/C=C/c1ccccc1 [ETHYL THIOCINNAMATE] 50

* * *

assay: Cytotoxicity against HUVEC assessed as maximum tolerated dose for >95% cell viability after 24 hrs by MTT assay; format: cell-based; conditions: human, HUVEC cells; read-out: MTD
measurement_name: MNTC at 24 h
Answer format: value, then unit.

# annotated cases, reported MNTC at 24 h shown
{"columns": ["compound", "MNTC at 24 h"],
 "data": [
  ["CC(C)OC(=S)/C=C/c1ccccc1 [ISOPROPYL THIONOCINNAMATE]", "35 µg/mL"],
  ["CCCCCCCCSC(=O)CCc1cc(OC)c(OC)c(OC)c1", "80 µg/mL"],
  ["CCOC(=S)/C=C/c1cc(OC)ccc1OC", "25 µg/mL"],
  ["CCCCCCCCSC(=O)/C=C/c1cc(OC)ccc1OC", "50 µg/mL"],
  ["CCOC(=O)/C=C/c1cc(OC)c(OC)c(OC)c1", "50 µg/mL"]
]}

Looking for the measured MNTC at 24 h of CCCOC(=O)/C=C/c1ccccc1 [PROPYL CINNAMATE] , can you help? 140 µg/mL

Input CCCCCCCCSC(=O)/C=C/c1cc(OC)c(OC)c(OC)c1 70 µg/mL

Same read-out for CCCOC(=O)/C=C/c1cc(OC)c(OC)c(OC)c1 ? 120 µg/mL

Okay, and COc1ccc(CCC(=O)OC(C)C)cc1OC ? 110 µg/mL

Please give the result for CCOC(=O)/C=C/c1ccccc1 [ETHYL CINNAMATE] too. 130 µg/mL

What do you have for CCOC(=S)/C=C/c1ccccc1 [ETHYL THIONOCINNAMATE] ? 50 µg/mL

And for CCCCOC(=O)/C=C/c1ccccc1 [BUTYL CINNAMATE] ? 140 µg/mL

Please give the result for COc1cc(/C=C/C(=O)SCc2ccccc2)cc(OC)c1OC too. 40 µg/mL

Queued: CCCOC(=S)/C=C/c1ccccc1 [PROPYL THIONOCINNAMATE] 80 µg/mL

And then CCOC(=S)/C=C/c1cc(OC)c(OC)c(OC)c1 , what is it? 20 µg/mL

// next record COc1cc(/C=C/C(=O)OC(C)C)cc(OC)c1OC 65 µg/mL

Try this compound too: CCCSC(=O)/C=C/c1cc(OC)c(OC)c(OC)c1 70 µg/mL

* * *

test: Cytotoxicity against HUVEC assessed as maximum tolerated dose for >95% cell viability after 24 hrs by MTT assay; format: cell-based; settings: human, HUVEC cells; read-out: MTD
Lab note: cut-off is 60 µg/mL. Strictly less in MNTC at 24 h is 1. Exactly 60 µg/mL or more is -1.

{"columns": ["molecule", "class_label"],
 "data": [
  ["COc1cccc(/C=C/C(=O)OC(C)C)c1O", -1],
  ["CCCOC(=S)/C=C/c1cc(OC)ccc1OC", 1],
  ["CCSC(=O)/C=C/c1cc(OC)c(OC)c(OC)c1", 1],
  ["COc1cc(/C=C/C(=O)Oc2ccccc2)cc(OC)c1OC", 1],
  ["O=C(/C=C/c1ccccc1)Sc1ccccc1 [PHENYL THIOCINNAMATE]", -1],
  ["CCCOC(=O)CCc1cc(OC)c(OC)c(OC)c1", -1],
  ["CCCSC(=O)/C=C/c1cc(OC)ccc1OC", 1],
  ["CCSC(=O)/C=C/c1cc(OC)ccc1OC", 1]
]}

Is MNTC at 24 h strictly under 60 µg/mL for the entry CCCOC(=O)CCc1ccc(OC)c(OC)c1 ? -1

Again, but for COc1cc(CCC(=O)OC(C)C)cc(OC)c1OC -1

* * *

assay: Cytotoxicity against HUVEC assessed as maximum tolerated dose for >95% cell viability after 24 hrs by MTT assay; format: cell-based; conditions: human, HUVEC cells; read-out: MTD
Mark 1 only for MNTC at 24 h values smaller than 60 µg/mL; exact matches and larger values are 0.

Solved cases (3 shown):
{"columns": ["compound", "class_label"],
 "data": [
  ["COc1cc(/C=C/C(=O)Sc2ccccc2)cc(OC)c1OC", 1],
  ["CCCCOC(=S)/C=C/c1ccccc1 [BUTYL THIONOCINNAMATE]", 0],
  ["CCCCCCCCOC(=O)/C=C/c1ccccc1 [OCTYL CINNAMATE]", 0]
]}

Is MNTC at 24 h of CCCOC(=S)/C=C/c1cc(OC)c(OC)c(OC)c1 strictly below 60 µg/mL? 1
